MEASURED QUANTITY: melting point

Some compounds with recorded melting point:
C[C@H](NC(=O)c1ccc(Cn2nnc(-c3ccc(OC(=O)C(C)(C)C)cc3)n2)cc1)C(=O)O 192 to 195 °C
O=C(O)CCCc1cc2cc(Cl)ccc2n1S(=O)(=O)c1ccc2c(c1)OCCO2 131 to 134 °C
OC1CCN(c2ncc3ncnc(Nc4ccc(F)c(Cl)c4)c3n2)CC1 243 to 246 °C
O=C(c1ccc(Br)cc1)N1CCN(CCCN2CCN(C(=O)c3ccc(Br)cc3)CC2)CC1 170 to 173 °C

For the 5 compounds below, give their melting point values.
1. COc1cc2ccoc2cc1N1CCN(CC2Cc3ccccc3C2)CC1
2. CC(=O)NC[C@H]1CN(c2ccc(-n3cnnc3)c(F)c2)C(=O)O1
3. N#Cc1cnc2cc(-c3ccc(CN4CCOCC4)cn3)ccc2c1Nc1ccc(Oc2ccccc2)cc1
4. CCSc1cccc2c1CC(=O)N2
5. Cc1ccc2c(c1)c1cc(C(=O)c3ccccc3C(=O)O)ccc1n2CCC#N

188 to 192 °C
204 to 206 °C
219 to 221 °C
143 to 144 °C
190 °C

====

Record form. Attribute: melting point. Fill in for each entry.

Some molecules with recorded melting point:
MOLECULE	MEASURED QUANTITY	RESULT
Cc1c(-c2ccc(C=CC(=O)OC(C)(C)C)cc2)nc2n1CCc1ccccc1C2OC1CCN(C)CC1 (stereo not given)	melting point	185 °C
O=C(NCc1ccncc1)c1cccc2c1OCCO2	melting point	120 to 121 °C
CCOC(=O)COc1c(CC=C(C)C)c(OC)cc(OC)c1C(=O)C=Cc1ccc(OC)cc1	melting point	85 to 86 °C
O=C(Nc1ccc(-n2nc(C(F)(F)F)cc2Br)cc1)c1ccncc1Cl	melting point	79 to 82 °C
Cc1ccc(C(=O)COc2cc(C)cc(C)c2C)cc1	melting point	94 to 95 °C
O=C1NC(=O)C(c2ccc(F)cc2)(c2ccc(F)cc2)C(=O)N1	melting point	315 to 318 °C
CC(C)(C)OC(=O)Nc1ccc(-c2ccc(F)cc2)cc1NC(=O)CC(=O)c1sccc1Cl	melting point	168 to 169 °C
O=C(Oc1cc(F)ccc1F)c1cc2ccccc2oc1=O	melting point	134 to 137 °C

For the 7 molecules below, give their melting point values.
1. CO/C=C(/C(=O)OC)c1ccccc1Oc1cc(OCc2ccc([N+](=O)[O-])cc2)ncn1
2. O=C(c1ccncc1)[N+]1([O-])CCN(C2c3ccc(Cl)cc3OCc3cccnc32)CC1 (stereo not given)
3. c1ccc2c(c1)C[C@H]1CSC(=Nc3cnccn3)N1C2
4. CSCC(O)C1(Sc2ccccc2)C(=O)N2C1CCOC2(C)C (stereo not given)
5. O=Cc1sccc1-c1noc2ccccc12
6. N#Cc1ccc2c(c1)nc1n2CCC(=O)N1
7. Cc1c(C(F)(F)C(F)(F)F)ncn1-c1ncc(C(F)(F)F)cc1Cl

["96 to 98 °C", "206 to 208 °C", "140 °C", "83 to 85 °C", "173 to 174 °C", "> 340 °C", "71 °C"]

For the 5 molecules below, give their melting point values.
1. C=CCC1(C)Cc2cc(O)c(Cl)c(Cl)c2C1=O (stereo not given)
2. O=c1[nH]c2ccccc2n1CCN1CCC(C(c2ccccc2)c2ccccc2)CC1
3. Cc1cc(C(=O)Cl)ccc1[N+](=O)[O-]
4. C[C@H](NS(=O)(=O)c1ccc2c(c1)Sc1ccccc1O2)C(=O)O
5. CCCCCCNC(=O)[C@H](C)C[C@H](O)[C@H](CC1CCCCC1)NC(=O)[C@H](Cc1cscn1)NC(=O)OC(C)(C)C

1: 180 °C; 2: 195 to 196 °C; 3: 29 to 30 °C; 4: 75 to 85 °C; 5: 156 to 158 °C
